- Test system: HIV-1 replication in C8166 LTRluc cells
- assay method text: C8166 HIV-1 luciferase assay
- Type: cell-based
- measurement context: Human immunodeficiency virus 1, 72 h, inhibition of HIV-1 replication, moi 0.005, 3 days
- Method: The assay used to measure inhibition of HIV replication is as described in WO 2004/050643, pages 73-75, herein incorporated by reference, with the following modifications: Serial dilutions of HIV-1 inhibitors are prepared in complete media from DMSO stock solutions. Eleven serial dilutions of desired concentration are prepared in a 1 mL deep well titer plate (96 wells). The 12th well contains complete media with no inhibitor and serves as the positive control. […]
Item-by-item account of EC50
Numeric answer only, unit nM assumed.

Illustrative cases are given below, each with its answer.
INSERT INTO measurements (compound, value_reported) VALUES
  ('CCN1C(=O)N(c2ccc(O)c(-c3cccnc3)c2)C(=O)N(c2ccccc2)c2cc(C(F)(F)F)ccc21 [Compound 3014]', 200),
  ('CCN1C(=O)N(c2ccc(C(=O)NC[C@@H]3CCCN3CC)cc2)C(=O)N(c2ccccc2)c2cc(C(F)(F)F)ccc21 [Compound 3055]', 400),
  ('CCN1C(=O)N(c2ccccc2)C(=O)N(c2ccccc2)c2cc(C(F)(F)F)ccc21 [Compound 3011]', 600);

Lab book: EC50 of CCN1C(=O)C(c2ccc(CN3CCNCC3)cc2)C(=O)N(c2ccccc2)c2cc(C(F)(F)F)ccc21 (stereo not shown) [Compound 2018] noted as 800

Lab book: EC50 of CCN1C(=O)C(c2cccc(-c3cccnc3)c2O)C(=O)N(c2ccccc2)c2cc(C(F)(F)F)ccc21 (stereo not shown) [Compound 2035] noted as 5800

Lab book: EC50 of CN1c2ccc(C(F)(F)F)cc2N(c2ccccc2)C(=O)c2c1ncn2C [Compound 5003] noted as 5500

Lab book: EC50 of CCN1C(=O)C2(CCc3ccccc32)C(=O)N(c2ccccc2)c2cc(C(F)(F)F)ccc21 (racemic) [Compound 7001] noted as 1500

Lab book: EC50 of CCN1C(=O)N(c2ccc(CO)cc2)C(=O)N(c2ccccc2)c2cc(C(F)(F)F)ccc21 [Compound 3027] noted as 700

Lab book: EC50 of CN1c2ccc(Cl)cc2N(c2ccccc2)C(=O)c2scnc21 [Compound 6001] noted as 8100

Lab book: EC50 of CCN1C(=O)C(c2ccccc2)C(=O)N(c2cccs2)c2cc(C(F)(F)F)ccc21 (stereo not shown) [Compound 2003] noted as 2500

Lab book: EC50 of COCCN/C=C1/C(=O)N(C)c2ccc(C(F)(F)F)cc2N(c2ccccc2)C1=O [Compound 1011] noted as 12000

Lab book: EC50 of CCCn1cc(-c2cc(C3C(=O)N(CC)c4ccc(C(F)(F)F)cc4N(c4ccccc4)C3=O)cc(OC)c2O)cn1 (stereo not shown) [Compound 2059] noted as 70

Lab book: EC50 of CCN1C(=O)C(c2cccnc2)C(=O)N(c2ccccc2)c2cc(C(F)(F)F)ccc21 (stereo not shown) [Compound 2076] noted as 4100
